Source: patent US12331022B2

# assay_system: human α7 nAChR (Homo sapiens)
# Construct: host or cells: HEK
# procedure_details: Automated patch-clamp electrophysiology functional assay (Assay A)
# Type: cell-based
# setup_conditions: HEK cell line stably expressing human RIC-3 and human α7; IonFlux HT whole-cell population patch; with or without 40 μM acetylcholine; read-out: α7 nAChR Potency
pEC50: −log10 of the molar value.
observation_type: pEC50

The cases that follow already have their pEC50 on record.
NS(=O)(=O)N1CCC2(CC1)C[C@@H]2COc1noc(-c2ccccc2)n1
5.30 to 6.30
NS(=O)(=O)N1CCC2(CC1)C(COc1ccnc(OCC(F)(F)F)c1)C2(F)F (single isomer, unassigned) [Example A34]
5.30 to 6.30
NS(=O)(=O)N1CCC2(CC1)C[C@@H]2COc1cccc(OCC(F)(F)F)n1
5.30 to 6.30
CN1CCN(c2cccc(OC[C@@H]3CC34CCN(S(N)(=O)=O)CC4)n2)CC1
5.30 to 6.30
NS(=O)(=O)N1CCC2(CC1)C(COc1cccc(OCC(F)(F)F)c1)C2(F)F (single isomer, unassigned)
≥ 7.00
COc1ccccc1NC(=O)[C@@H]1CC12CCN(S(N)(=O)=O)CC2
5.30 to 6.30
NS(=O)(=O)N1CCC2(CC1)C[C@H]2COc1cccc(OCC(F)(F)F)n1
≥ 7.00
NS(=O)(=O)N1CCC2(CC1)C(COc1cccc(OC(F)F)c1)C2(F)F (single isomer, unassigned) [Example A29]
6.30 to 7.00
NS(=O)(=O)N1CCC2(CC1)C[C@H]2COc1noc(-c2ccccc2)n1
5.30 to 6.30
NS(=O)(=O)N1CCC2(CC1)C(COc1ccc(F)cc1C(F)(F)F)C2(F)F (single isomer, unassigned)
5.30 to 6.30

Problem: Quick one: pEC50 of "NS(=O)(=O)N1CCC2(CC1)C[C@H]2COc1cccc(OCC2CC2)n1" ?
Solution: 6.30 to 7.00

Problem: Quick one: pEC50 of "NS(=O)(=O)N1CCC2(CC1)C[C@H]2COc1cccc(N2CCOCC2)n1" ?
Solution: 6.30 to 7.00

Problem: Quick one: pEC50 of "COc1ccc(Cl)cc1SC[C@@H]1CC12CCN(S(N)(=O)=O)CC2" ?
Solution: ≥ 7.00

Problem: Quick one: pEC50 of "Cc1cc(C)n(-c2cccc(OC[C@@H]3CC34CCN(S(N)(=O)=O)CC4)n2)n1" ?
Solution: 6.30 to 7.00

Problem: Quick one: pEC50 of "N#Cc1cccc(OC[C@@H]2CC23CCN(S(N)(=O)=O)CC3)n1" ?
Solution: 5.30 to 6.30

Problem: Quick one: pEC50 of "NS(=O)(=O)N1CCC2(CC1)C[C@H]2COc1cccc(C2CC2)n1" ?
Solution: 6.30 to 7.00

Problem: Quick one: pEC50 of COc1ccc(Cl)cc1OCC1C(F)(F)C12CCN(S(N)(=O)=O)CC2 (single isomer, unassigned) [Example A3] ?
Solution: 5.30 to 6.30

Problem: Quick one: pEC50 of Cc1cc(OCC2CC23CCN(S(N)(=O)=O)CC3)n(-c2ccccc2)n1 (racemic) ?
Solution: 5.30 to 6.30

Problem: Quick one: pEC50 of "Cc1cccc(OC[C@@H]2CC23CCN(S(N)(=O)=O)CC3)n1" ?
Solution: 5.30 to 6.30

Problem: Quick one: pEC50 of "NS(=O)(=O)N1CCC2(CC1)C[C@@H]2COc1cccc(OC(F)(F)F)c1" ?
Solution: 5.30 to 6.30

====

# assay_system: human α7 nAChR (Homo sapiens, UniProt P36544)
# Construct: host or cells: HEK
# Sequence (P36544 23-502): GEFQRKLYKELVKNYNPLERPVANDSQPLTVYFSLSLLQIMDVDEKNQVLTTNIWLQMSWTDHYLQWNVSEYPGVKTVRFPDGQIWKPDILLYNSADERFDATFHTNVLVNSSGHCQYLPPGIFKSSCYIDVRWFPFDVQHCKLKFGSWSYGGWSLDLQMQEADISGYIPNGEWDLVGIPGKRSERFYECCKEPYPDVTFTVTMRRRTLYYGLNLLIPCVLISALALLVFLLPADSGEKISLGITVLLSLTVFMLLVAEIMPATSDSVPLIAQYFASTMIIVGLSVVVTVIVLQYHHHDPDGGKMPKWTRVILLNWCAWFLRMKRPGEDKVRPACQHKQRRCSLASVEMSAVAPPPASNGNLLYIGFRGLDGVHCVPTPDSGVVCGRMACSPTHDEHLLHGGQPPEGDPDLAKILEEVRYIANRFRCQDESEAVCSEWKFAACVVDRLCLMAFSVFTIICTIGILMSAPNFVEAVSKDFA
# procedure_details: Automated patch-clamp electrophysiology functional assay (Assay A)
# Type: cell-based
# setup_conditions: HEK cell line stably expressing human RIC-3 and human α7; IonFlux HT whole-cell population patch; with or without 40 μM acetylcholine; read-out: α7 nAChR EC50
observation_type: EC50 (µM)

The cases that follow already have their EC50 on record.
COc1ccc(Cl)cc1NC(=O)[C@H]1C(F)(F)C12CCN(S(N)(=O)=O)CC2
1.4
COc1cc(F)ccc1OC[C@@H]1CC12CCN(S(N)(=O)=O)CC2
0.94
NS(=O)(=O)N1CCC2(CC1)C[C@H]2COc1cccc(OC(F)(F)F)c1
0.18
Cc1cc(OCC2CC23CCN(S(N)(=O)=O)CC3)n(-c2ccccc2)n1 (racemic)
0.7
COc1ccc(Cl)cc1NC(=O)[C@@H]1CC12CCN(S(N)(=O)=O)CC2
0.2

A. NS(=O)(=O)N1CCC2(CC1)CC2COc1cccc(OC(F)F)c1 (racemic)
B. NS(=O)(=O)N1CCC2(CC1)C[C@@H]2COc1noc(-c2ccccc2)n1
C. Cc1ccn(-c2cccc(OC[C@@H]3CC34CCN(S(N)(=O)=O)CC4)n2)n1
Problem: Hey, quick one: sort these by EC50, low to high? Reply: labels, ordered per the request.
Solution: A, C, B
(A: 0.15 µM, C: 0.25 µM, B: 4.1 µM)

====

# assay_system: human α7 nAChR (Homo sapiens, UniProt P36544)
# Construct: host or cells: HEK
# procedure_details: Automated patch-clamp electrophysiology functional assay (Assay A)
# Type: cell-based
# setup_conditions: HEK cell line stably expressing human RIC-3 and human α7; IonFlux HT whole-cell population patch; with or without 40 μM acetylcholine; read-out: α7 nAChR EC50
observation_type: EC50 (nM)

Cn1nc(C(F)(F)F)cc1OCC1C(F)(F)C12CCN(S(N)(=O)=O)CC2 (single isomer, unassigned) [Example A12]
4200
Cc1cc(C)n(-c2cccc(OC[C@H]3CC34CCN(S(N)(=O)=O)CC4)n2)n1 [Example A20]
1800
NS(=O)(=O)N1CCC2(CC1)C[C@@H]2COc1cccc(OCC2CC2)n1 [Example A18]
300
NS(=O)(=O)N1CCC2(CC1)C(CSc1nnnn1-c1ccccc1)C2(F)F (single isomer, unassigned) [Example A62]
2000
NS(=O)(=O)N1CCC2(CC1)C(COc1ccc(F)cc1C(F)(F)F)C2(F)F (single isomer, unassigned) [Example A10]
1500

a. COc1ccc(Cl)cc1NC[C@@H]1CC12CCN(S(N)(=O)=O)CC2 [Example 14]
b. Cc1cc(C)n(-c2cccc(OC[C@@H]3CC34CCN(S(N)(=O)=O)CC4)n2)n1 [Example A19]
c. COc1ccc(Cl)cc1OCC1C(F)(F)C12CCN(S(N)(=O)=O)CC2 (single isomer, unassigned) [Example A2]
d. NS(=O)(=O)N1CCC2(CC1)C(CSc1ccc(F)cc1C(F)(F)F)C2(F)F (stereo not drawn) [Example 17]
Problem: Hey, quick one: sort these by EC50, low to high? Reply: labels, ordered per the request.
Solution: c, a, b, d

====

# assay_system: human α7 nAChR (Homo sapiens)
# Construct: host or cells: HEK
# procedure_details: Automated patch-clamp electrophysiology functional assay (Assay A)
# Type: cell-based
# setup_conditions: HEK cell line stably expressing human RIC-3 and human α7; IonFlux HT whole-cell population patch; with or without 40 μM acetylcholine; read-out: α7 nAChR Potency
pEC50: −log10 of the molar value.
observation_type: pEC50

NS(=O)(=O)N1CCC2(CC1)CC2COc1ccnc(OCC(F)(F)F)c1 (racemic) [Example A32]
6.30 to 7.00
NS(=O)(=O)N1CCC2(CC1)C(COc1cccnc1OCC(F)(F)F)C2(F)F (single isomer, unassigned) [Example A36]
5.30 to 6.30
NS(=O)(=O)N1CCC2(CC1)C(COc1cccc(OCC(F)(F)F)n1)C2(F)F (single isomer, unassigned) [Example A40]
≥ 7.00
Cn1nc(C(F)(F)F)cc1OCC1C(F)(F)C12CCN(S(N)(=O)=O)CC2 (single isomer, unassigned) [Example A11]
≥ 7.00

Problem: Quick one: pEC50 of NS(=O)(=O)N1CCC2(CC1)C[C@H]2COc1cccc(OC(F)(F)F)c1 [Example A24] ?
Solution: 6.30 to 7.00

Problem: Quick one: pEC50 of NS(=O)(=O)N1CCC2(CC1)CC2COc1ccccc1OC(F)F (single isomer, unassigned) [Example A9] ?
Solution: 5.30 to 6.30

Problem: Quick one: pEC50 of NS(=O)(=O)N1CCC2(CC1)C(COc1cccc(OCC(F)(F)F)n1)C2(F)F (single isomer, unassigned) [Example A41] ?
Solution: 6.30 to 7.00

====

# assay_system: human α7 nAChR (Homo sapiens, UniProt P36544)
# Construct: host or cells: HEK
# procedure_details: Automated patch-clamp electrophysiology functional assay (Assay A)
# Assay type: cell-based
# setup_conditions: HEK cell line stably expressing human RIC-3 and human α7; IonFlux HT whole-cell population patch; with or without 40 μM acetylcholine; read-out: α7 nAChR EC50
pEC50: −log10 of the molar value.
observation_type: pEC50

COc1cccc(OC[C@@H]2CC23CCN(S(N)(=O)=O)CC3)n1
6.24
NS(=O)(=O)N1CCC2(CC1)C(COc1cccc(OC(F)F)c1)C2(F)F (single isomer, unassigned) [Example A29]
6.51
NS(=O)(=O)N1CCC2(CC1)C(COc1ccnc(OC(F)F)c1)C2(F)F (single isomer, unassigned) [Example 3]
6.03
NS(=O)(=O)N1CCC2(CC1)C(CSc1nnnn1-c1ccccc1)C2(F)F (single isomer, unassigned) [Example A61]
5.89

a. NS(=O)(=O)N1CCC2(CC1)C[C@H]2COc1cccc(C2CC2)n1
b. NS(=O)(=O)N1CCC2(CC1)CC2COc1ccnc(OC(F)F)c1 (centres unmarked)
c. COc1ccc(Cl)cc1S(=O)(=O)C[C@@H]1CC12CCN(S(N)(=O)=O)CC2
d. NS(=O)(=O)N1CCC2(CC1)CC2COc1ccnc(C(F)(F)F)c1 (centres unmarked)
Problem: Hey, quick one: sort these by pEC50, low to high? Reply: labels, ordered per the request.
Solution: d, c, b, a
